System: U2OS
PROTOCOL_DETAILS: Multiplex assay against U2OS
Assay type: toxicity, cell-based
RUN_PARAMETERS: human, 12 h, 10 µM, compound concentration 10 uM, replicate 2
// boundary case: Population Pyknosed Nuclei (%) equal to 7% maps to false (0); strictly smaller maps to true (1)

Examples from the recorded data:
{"columns": ["COMPOUND", "CLASS_LABEL"],
 "data": [
  ["C[C@H]1[C@H]2CC[C@H]3[C@@H]4CC=C5C[C@@H](N(C)C)CC[C@]5(C)[C@H]4CC[C@]23CN1C [CONESSINE]", "false (0)"],
  ["COc1c(C)cc(NC(=O)c2nn(Cc3ccc(F)cc3)c3c2CN(C(=O)c2ccc[nH]2)C[C@]3(C)C(N)=O)cc1C", "false (0)"],
  ["CN1CCN(c2nc3cc(C(F)(F)F)ccc3n3cccc23)CC1.O=C(O)/C=C\\C(=O)O.O=C(O)/C=C\\C(=O)O", "true (1)"],
  ["CCOc1c2c(c(OCC)c3ncccc13)CN(c1ccc(CS(=O)(=O)NC(=O)Cc3ccccc3OC)cc1C)C2=O", "true (1)"],
  ["Cc1ccc(C(C)(O)c2nc3ccccc3s2)c(C)c1 (stereo not drawn)", "true (1)"],
  ["CCCN1CCC[C@@H]2Cc3n[nH]cc3C[C@H]21.Cl [QUINPIROLE HYDROCHLORIDE]", "true (1)"]
]}

Ask: Criterion: Population Pyknosed Nuclei (%) strictly below 7%. Is it met by COc1cc(NC(=O)CCN2CCC(OC(=O)Nc3ccccc3-c3ccccc3)CC2)c(Cl)cc1CNC[C@H](O)c1ccc(O)c2[nH]c(=O)ccc12 [BATEFENTEROL] ?
Reply: false (0)

Ask: Population Pyknosed Nuclei (%) under 7%? Item: CCCn1c(=O)c2[nH]c(C3CCCC3)nc2n(CCC)c1=O
Reply: false (0)

Ask: Just wondering, is Population Pyknosed Nuclei (%) of CSc1ccccc1N1CCN(CCCCCC(=O)NC2CCCc3ccccc32)CC1.Cl (stereo not drawn) below 7%?
Reply: false (0)

Ask: Find out if reported Population Pyknosed Nuclei (%) for O=S(=O)(c1ccccc1)c1cnc2c(N3CCNCC3)cccc2c1 [INTEPIRDINE] is less than 7%
Reply: false (0)

Ask: Is Population Pyknosed Nuclei (%) of O=C(O)Cc1ccccc1Nc1c(Cl)cccc1Cl [DICLOFENAC] strictly below 7%?
Reply: false (0)

Ask: Confirm or reject: Population Pyknosed Nuclei (%) of COc1cc(C(=O)N(CCCc2ccccc2)Cc2ccc(CC(=O)O)cc2)cc(OC)c1C lies strictly below 7%
Reply: true (1)

Ask: Decide: Population Pyknosed Nuclei (%) of O=C(NCC(=O)N1CC[C@H](N[C@H]2CC[C@@](O)(c3ccc(-c4ncccn4)cn3)CC2)C1)c1cccc(C(F)(F)F)c1 [PF-4136309] strictly below 7%?
Reply: false (0)

Ask: In plain terms, does CC[C@H]1OC(=O)[C@H](C)[C@@H](O[C@H]2C[C@@](C)(OC)[C@@H](O)[C@H](C)O2)[C@H](C)[C@@H](O[C@@H]2O[C@H](C)C[C@H](N(C)C)[C@H]2O)[C@@]2(C)CC(C)=C(O2)[C@H](C)[C@@H](O)[C@]1(C)O come in under 7% for Population Pyknosed Nuclei (%)?
Reply: false (0)
